TESTED_ON: human P2X7 receptor (Homo sapiens (Human), UniProt Q99572)
Sequence (Q99572 whole entry): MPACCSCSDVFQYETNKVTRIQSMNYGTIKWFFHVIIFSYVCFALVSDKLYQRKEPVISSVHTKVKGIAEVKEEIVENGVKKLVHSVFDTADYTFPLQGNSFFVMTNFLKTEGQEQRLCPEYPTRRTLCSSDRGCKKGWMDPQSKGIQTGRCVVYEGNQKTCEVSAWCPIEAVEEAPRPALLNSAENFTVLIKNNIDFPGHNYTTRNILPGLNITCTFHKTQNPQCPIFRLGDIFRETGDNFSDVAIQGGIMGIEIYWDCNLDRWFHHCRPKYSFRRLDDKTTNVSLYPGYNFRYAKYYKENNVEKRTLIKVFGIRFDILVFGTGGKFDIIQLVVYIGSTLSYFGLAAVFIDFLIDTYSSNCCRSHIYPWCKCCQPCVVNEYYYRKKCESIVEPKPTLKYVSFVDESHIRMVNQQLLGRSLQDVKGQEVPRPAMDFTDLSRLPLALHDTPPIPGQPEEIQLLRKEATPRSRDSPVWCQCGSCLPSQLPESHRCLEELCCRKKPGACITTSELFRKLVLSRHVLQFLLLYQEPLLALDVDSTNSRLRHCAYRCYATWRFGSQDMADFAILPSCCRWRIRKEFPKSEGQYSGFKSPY
PROCEDURE_TEXT: Pore permeation assay (YO PRO dye uptake)
Assay type: cell-based
RECORDED_METRIC: IC50

Prompt: Field request: IC50 | item: CC(O)(CNC(=O)c1cn(C2COC2)c2cccc(Cl)c12)C1CCCC1 (centres unmarked)
Completion: 500 to 999 nM

Prompt: State the recorded IC50 for this entry: CN1CC(n2cc(C(=O)NCC3(O)CCC(F)(F)CC3)c3c(Cl)cccc32)C1
Completion: 500 to 999 nM

Prompt: Any idea what its IC50 is? The compound is O=C(NCC1CCC(F)(F)CC1)c1cn(CCC(F)F)c2cccc(Cl)c12
Completion: 10 to 100 nM

Prompt: Query (compound): O=C(NCC1CCC(F)(F)CC1)c1cn(CC2COCCO2)c2cccc(Cl)c12 (centres unmarked) ; field requested: IC50
Completion: 10 to 100 nM

Prompt: Query: IC50; subject: CN1CC[C@H]1Cn1cc(C(=O)NCC2CCC(F)(F)CC2)c2c(Cl)cccc21
Completion: 10 to 100 nM

Prompt: Entry O=C(NCC1(O)CCC(F)(F)CC1)c1cn(CCC(F)(F)F)c2cccc(Cl)c12 has what IC50?
Completion: 101 to 500 nM

Prompt: Which IC50 is reported for this compound? CC(C)N1CCCC1Cn1cc(C(=O)NCC2CCC(F)(F)CC2)c2c(Cl)cccc21 (centres unmarked)
Completion: 10 to 100 nM

Prompt: I have this compound here, O=C(NCC1CCC(F)(F)CC1)c1cn(CCOC(F)F)c2cccc(Cl)c12 , and I need its recorded IC50.
Completion: 10 to 100 nM

###

For each entry below, report its IC50 value.
TESTED_ON: human P2X7 receptor (Homo sapiens (Human), UniProt Q99572)
PROCEDURE_TEXT: Pore permeation assay (YO PRO dye uptake)
Format: cell-based
TEST_CONDITIONS: HEK293 transfected with human P2X7; BzATP 10 uM; YO PRO dye uptake; read-out: hP2X7 IC50

Prompt: Kindly state the measured IC50 obtained for CN(C)C(=O)Cn1cc(C(=O)NCC2CCC(F)(F)CC2)c2c(Cl)cccc21 with human P2X7 receptor (Homo sapiens (Human), UniProt Q99572).
Completion: < 10 nM

Prompt: Write down the reported IC50 of COCCn1cc(C(=O)NCc2ccc(C(F)(F)F)cc2)c2c(Cl)cccc21 , test system: human P2X7 receptor (Homo sapiens (Human), UniProt Q99572).
Completion: > 1000 nM

Prompt: Which IC50 is reported with human P2X7 receptor (Homo sapiens (Human), UniProt Q99572) for this entry: O=C(NCC1(O)CCCC(C(F)(F)F)C1)c1cn(C2COC2)c2cccc(Cl)c12 (stereo not drawn) ?
Completion: > 1000 nM

Prompt: Which measured IC50 belongs to O=C(NCC1CCCOC1)c1cn(C2COC2)c2cccc(Cl)c12 (stereo not drawn) , tested on human P2X7 receptor (Homo sapiens (Human), UniProt Q99572)?
Completion: > 1000 nM

Prompt: Give IC50 (human P2X7 receptor (Homo sapiens (Human), UniProt Q99572)) of the following compound: O=C(N[C@@H](CO)C1CCCCC1)c1cn(C2COC2)c2cccc(Cl)c12
Completion: > 1000 nM

Prompt: Field: IC50 (human P2X7 receptor (Homo sapiens (Human), UniProt Q99572)). Entry: COCCn1cc(C(=O)NC[C@@]2(O)CCCC(F)(F)C2)c2c(Cl)cccc21
Completion: < 10 nM

Prompt: Checklist item: IC50 tested on human P2X7 receptor (Homo sapiens (Human), UniProt Q99572), entry O=C(NCC1CCCC2(CC2)C1)c1cn(C2COC2)c2cccc(Cl)c12 (stereo not drawn) , value?
Completion: < 10 nM

Prompt: Item: CC1CCCC(O)(CNC(=O)c2cn(C3COC3)c3cccc(Cl)c23)C1 (stereo not drawn) Test system: human P2X7 receptor (Homo sapiens (Human), UniProt Q99572) Read-out: IC50 Value: ?
Completion: < 10 nM

Prompt: Tell me reported IC50 for O=C(NCC1CCCC(F)(F)C1)c1cn(CCC(F)F)c2cccc(Cl)c12 (stereo not drawn) , tested with human P2X7 receptor (Homo sapiens (Human), UniProt Q99572).
Completion: < 10 nM

Prompt: # query: IC50 | item O=C(NC(C1CCCC1)C(F)(F)F)c1cn(C2COC2)c2cccc(Cl)c12 (stereo not drawn) | system: human P2X7 receptor (Homo sapiens (Human), UniProt Q99572)
Completion: > 1000 nM

Prompt: // lookup IC50 | system=human P2X7 receptor (Homo sapiens (Human), UniProt Q99572) | key= CN(C)C(CNC(=O)c1cn(C2CCOC2)c2cccc(Cl)c12)C1CCCCC1 (stereo not drawn)
Completion: > 1000 nM

Prompt: Please tell me: IC50 of COCCn1cc(C(=O)NCc2cccc3c2OCCO3)c2c(Cl)cccc21 , system human P2X7 receptor (Homo sapiens (Human), UniProt Q99572)?
Completion: > 1000 nM

Prompt: Return IC50 measured with human P2X7 receptor (Homo sapiens (Human), UniProt Q99572) given this compound: COCCn1cc(C(=O)NCC2(O)CCCCC2O)c2c(Cl)cccc21 (stereo not drawn)
Completion: > 1000 nM

Prompt: Return IC50 measured with human P2X7 receptor (Homo sapiens (Human), UniProt Q99572) given this compound: CN(C)C(=O)Cn1cc(C(=O)NCC2(O)CCC(F)(F)CC2)c2c(Cl)cccc21
Completion: < 10 nM

Prompt: Record lookup: for human P2X7 receptor (Homo sapiens (Human), UniProt Q99572), what IC50 belongs to O=C(NCCC1CCCC1)c1cn(C2COC2)c2cccc(Cl)c12 ?
Completion: < 10 nM

Prompt: Give recorded IC50 with human P2X7 receptor (Homo sapiens (Human), UniProt Q99572) for the following compound: C[C@H]1CCC[C@@](O)(CNC(=O)c2cn(C3COC3)c3cccc(Cl)c23)C1
Completion: < 10 nM

Prompt: # value lookup — system human P2X7 receptor (Homo sapiens (Human), UniProt Q99572), readout IC50, item O=C(NCCC(F)(F)F)c1cn(C2COC2)c2cccc(Cl)c12
Completion: > 1000 nM

Prompt: Recall the recorded IC50 for O=C(NCC1CCC(F)(F)CC1)c1cn(CC2CCCCN2)c2cccc(Cl)c12 (stereo not drawn) with human P2X7 receptor (Homo sapiens (Human), UniProt Q99572) and state it.
Completion: < 10 nM

###

TESTED_ON: UniProt Q99572
PROCEDURE_TEXT: Pore permeation assay (YO PRO dye uptake)
Assay type: cell-based
TEST_CONDITIONS: HEK293 transfected with human P2X7; BzATP 10 uM; YO PRO dye uptake; read-out: hP2X7 IC50
RECORDED_METRIC: IC50

Prompt: Dear colleague, I am looking for the recorded IC50 of the following compound: O=C(NCC[C@@H]1C[C@@H]2C=C[C@H]1C2)c1cn(C2COC2)c2cccc(Cl)c12
Completion: < 10 nM

Prompt: Fill in: IC50 of O=C(NC(c1cccs1)C1CCCCC1)c1cn(C2COC2)c2cccc(Cl)c12 (centres unmarked) is ___
Completion: > 1000 nM

Prompt: Param item = CCOC(C)CNC(=O)c1cn(C2COC2)c2cccc(Cl)c12 (centres unmarked) ; retrieve measured IC50.
Completion: > 1000 nM

Prompt: Tell me the measured IC50 of COCCn1cc(C(=O)NCc2nc3ccccc3s2)c2c(Cl)cccc21 , please.
Completion: > 1000 nM

Prompt: Quick check: IC50 of COCCn1cc(C(=O)NC(CO)c2cccc(C(F)(F)F)c2Cl)c2c(Cl)cccc21 (centres unmarked) ?
Completion: 101 to 500 nM

Prompt: Quick one: IC50 of CC(=O)N1CC[C@H]1Cn1cc(C(=O)NCC2CCC(F)(F)CC2)c2c(Cl)cccc21 ?
Completion: 101 to 500 nM

Prompt: Tell me the measured IC50 of CC(C)(NC(=O)c1cn(C2COC2)c2cccc(Cl)c12)[C@]12C[C@H]3C[C@H](C[C@H](C3)C1)C2 , please.
Completion: 101 to 500 nM

Prompt: # lookup: IC50 of C[C@H]1CCC[C@@](O)(CNC(=O)c2cn(CCC(F)F)c3cccc(Cl)c23)C1
Completion: < 10 nM

Prompt: Look at this compound and give its reported IC50. C[C@@H](NC(=O)c1cn(C2COC2)c2cccc(Cl)c12)[C@@]12C[C@@H]3C[C@@H](C[C@@](O)(C3)C1)C2
Completion: 500 to 999 nM

Prompt: IC50 for O=C(NCC1(O)CCCC(C(F)(F)F)C1)c1cn(CC2CCCO2)c2cccc(Cl)c12 (centres unmarked) ?
Completion: > 1000 nM

Prompt: Tell me the measured IC50 of COCCn1cc(C(=O)NCc2ccc3c(c2)OCO3)c2c(Cl)cccc21 , please.
Completion: > 1000 nM

Prompt: Can you look up the measured IC50 of O=C(NC[C@@]1(O)CCCC(F)(F)C1)c1cn(CCN2CCCC2)c2cccc(Cl)c12 for me?
Completion: > 1000 nM

Prompt: Given the compound O=C(NC(C1CCCCC1)C(F)(F)F)c1cn(C2COC2)c2cccc(Cl)c12 (centres unmarked) , what is its reported IC50?
Completion: > 1000 nM

Prompt: Bench note: what IC50 did O=C(NCCC1(O)CCCC1)c1cn(C2COC2)c2cccc(Cl)c12 show?
Completion: > 1000 nM

Prompt: GET /values?readout=IC50&item= O=C(NCC1CCC(F)(F)CC1)c1cn(CC2CCCN2)c2cccc(Cl)c12 (centres unmarked)
Completion: < 10 nM

Prompt: What measured IC50 goes with CC(C(=O)N(C)C)n1cc(C(=O)NCC2CCC(F)(F)CC2)c2c(Cl)cccc21 (centres unmarked) ?
Completion: < 10 nM

Prompt: Give its IC50 value. Item: COCCn1cc(C(=O)NCc2ccco2)c2c(Cl)cccc21
Completion: > 1000 nM
